- TGT: TYK2 (Homo sapiens, UniProt P29597)
- Sequence (P29597 whole entry): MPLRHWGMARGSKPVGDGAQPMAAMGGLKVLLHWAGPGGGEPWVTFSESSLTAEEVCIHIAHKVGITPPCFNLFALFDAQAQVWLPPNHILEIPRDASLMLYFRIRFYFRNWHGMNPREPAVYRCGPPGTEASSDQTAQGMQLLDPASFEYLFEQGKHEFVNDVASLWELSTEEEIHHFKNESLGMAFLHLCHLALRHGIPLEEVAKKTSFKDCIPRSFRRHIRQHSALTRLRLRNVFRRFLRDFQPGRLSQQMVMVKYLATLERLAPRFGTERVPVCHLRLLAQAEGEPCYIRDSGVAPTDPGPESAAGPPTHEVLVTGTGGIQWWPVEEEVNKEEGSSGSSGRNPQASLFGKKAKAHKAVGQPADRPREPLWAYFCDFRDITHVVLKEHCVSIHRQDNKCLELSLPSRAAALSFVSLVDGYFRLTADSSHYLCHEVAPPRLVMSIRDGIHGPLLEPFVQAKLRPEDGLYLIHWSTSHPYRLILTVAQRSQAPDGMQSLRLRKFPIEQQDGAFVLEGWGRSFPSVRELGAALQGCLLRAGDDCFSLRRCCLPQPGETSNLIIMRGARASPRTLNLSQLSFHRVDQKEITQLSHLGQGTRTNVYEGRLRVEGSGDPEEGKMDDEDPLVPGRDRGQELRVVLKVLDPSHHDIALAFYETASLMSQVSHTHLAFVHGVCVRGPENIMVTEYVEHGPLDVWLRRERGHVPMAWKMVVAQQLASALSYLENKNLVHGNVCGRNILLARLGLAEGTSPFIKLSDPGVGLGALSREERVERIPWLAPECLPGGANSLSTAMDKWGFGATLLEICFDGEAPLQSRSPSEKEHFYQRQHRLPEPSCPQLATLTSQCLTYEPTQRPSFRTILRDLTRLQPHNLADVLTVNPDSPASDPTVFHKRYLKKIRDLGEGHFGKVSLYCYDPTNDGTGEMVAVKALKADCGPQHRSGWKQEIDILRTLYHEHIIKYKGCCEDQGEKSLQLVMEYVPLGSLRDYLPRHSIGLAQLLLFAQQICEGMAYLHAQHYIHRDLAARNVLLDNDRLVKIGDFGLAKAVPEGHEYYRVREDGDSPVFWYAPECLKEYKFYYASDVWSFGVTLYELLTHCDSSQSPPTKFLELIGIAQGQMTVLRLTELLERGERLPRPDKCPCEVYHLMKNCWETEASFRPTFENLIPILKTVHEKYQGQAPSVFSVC
- TEST NAME: TYK2 kinase inhibition (Table A1)
- Type: biochemical
- APPLIED CONDITIONS: Table B1
pIC50: −log10 of the molar value. Counter-ions that a name gives are not always drawn.
QUANTITY MEASURED: pIC50

| MOLECULE | pIC50 |
| --- | --- |
| Nc1ccc2cc1CCc1cccc(c1)Nc1ncc(Cl)c(n1)N2 [Example B19, dihydrochloride] | 8.60 |

a: CS(=O)(=O)N1CCC(NC(=O)Nc2ccc3cc2CCc2cccc(c2)Nc2ncc(Cl)c(n2)N3)CC1 [Example B182, trifluoroacetate]
b: O=C(Nc1nc(C(=O)O)cs1)Nc1ccc2cc1CCc1cccc(c1)Nc1ncc(Cl)c(n1)N2 [Example B250, trifluoroacetate]
Query: Of a and b , which carries the smaller reported pIC50 figure? Answer = label.
Result: a
(a: 7.77, b: 8.26)

1: O=C(Nc1ccc2cc1CCc1cccc(c1)Nc1ncc(Cl)c(n1)N2)N[C@H]1CCN(C(=O)c2ccccn2)C1 [Example B233, bis(trifluoroacetate)]
2: COc1ccccc1NC(=O)Nc1ccc2cc1CCc1cccc(c1)Nc1ncc(Cl)c(n1)N2 [Example B102, trifluoroacetate]
3: Cc1oncc1C(=O)N1CCC(NC(=O)Nc2ccc3cc2CCc2cccc(c2)Nc2ncc(Cl)c(n2)N3)CC1 [Example B264, trifluoroacetate]
4: O=C(Nc1ccc2cc1CCc1cccc(c1)Nc1ncc(Cl)c(n1)N2)c1ccsc1 [Example B62, trifluoroacetate]
5: Cc1cc(C(=O)Nc2ccc3cc2CCc2cccc(c2)Nc2ncc(Cl)c(n2)N3)nc(Cl)n1 [Example B280, bis(trifluoroacetate)]
Query: Could you please order the items by pIC50, going from the lowest number to the highest? // ordering of labels required in reply
Result: 5, 3, 1, 2, 4
(5: 5.75, 3: 7.27, 1: 7.62, 2: 8.05, 4: 8.57)

I: O=C(Nc1ccc2cc1CCc1cccc(c1)Nc1ncc(Cl)c(n1)N2)N[C@@H]1CCNC1 [Example B175, dihydrochloride]
II: O=C(Nc1ccsc1)Nc1ccc2cc1CCc1cccc(c1)Nc1ncc(Cl)c(n1)N2 [Example B89, trifluoroacetate]
III: O=C(NO)Nc1ccc2cc1CCc1cccc(c1)Nc1ncc(Cl)c(n1)N2 [Example B324, trifluoroacetate]
Query: Place the items in sequence of falling pIC50. Present the labels in the sequence the task asks for.
Result: III, II, I
(III: 8.55, II: 7.80, I: 7.51)

a: O=C(Nc1ccc2cc1CCc1cncc(c1)Nc1ncc(Cl)c(n1)N2)N1CCN(c2ccc(F)cc2)CC1 [Example B297, tris(trifluoroacetate)]
b: CS(=O)(=O)NCCNC(=O)Nc1ccc2cc1CCc1cccc(c1)Nc1ncc(Cl)c(n1)N2 [Example B187, trifluoroacetate]
Query: Param metric = pIC50; output whichever of a , b has the minimum value. Bench note: the answer is the label of the chosen record.
Result: a

1: Cc1occc1NC(=O)Nc1ccc2cc1CCc1cccc(c1)Nc1ncc(Cl)c(n1)N2 [Example B118, trifluoroacetate]
2: O=S(=O)(Nc1ccc2cc1CCc1cccc(c1)Nc1ncc(Cl)c(n1)N2)c1cccs1 [Example B146, trifluoroacetate]
3: CC1(C)Cc2cccc(NC(=O)Nc3ccc4cc3CCc3cccc(c3)Nc3ncc(Cl)c(n3)N4)c2O1 [Example B129, trifluoroacetate]
4: Cc1ccccc1NC(=O)Nc1ccc2cc1CCc1cccc(c1)Nc1ncc(Cl)c(n1)N2 [Example B91, trifluoroacetate]
Query: Please rank these molecules by pIC50 in descending order. As an answer, provide the labels arranged in the order called for.
Result: 2, 1, 4, 3

a: CSc1ccccc1NC(=O)Nc1ccc2cc1CCc1cccc(c1)Nc1ncc(Cl)c(n1)N2 [Example B107, trifluoroacetate]
b: Cc1ccc(Cl)cc1NC(=O)Nc1ccc2cc1CCc1cccc(c1)Nc1ncc(Cl)c(n1)N2 [Example B123, trifluoroacetate]
c: Fc1ccc(CN2CCN(Cc3cc4cc(c3)Nc3nc(ncc3Cl)Nc3cccc(c3)CC4)CC2)cc1 [Example B192, tris(trifluoroacetate)]
Query: Hey, can you sort those molecules up there by pIC50, smallest first? Answer by naming the labels in the order asked.
Result: c, b, a
(c: 6.47, b: 7.49, a: 8.17)

I: O=C(Nc1ccc2cc1CCc1cncc(c1)Nc1ncc(Cl)c(n1)N2)N[C@H]1CCN(C(=O)c2ccccc2)C1 [Example B227, bis(trifluoroacetate)]
II: O=C(Nc1ccc2cc1CCc1cccc(c1)Nc1ncc(Cl)c(n1)N2)c1cccnc1 [Example B30, bis(trifluoroacetate)]
Query: Between I and II , which one has the lower reported pIC50 value? // output: label of the selected item
Result: I

I: COc1ccc(N2CCN(C(=O)Nc3ccc4cc3CCc3cncc(c3)Nc3ncc(Cl)c(n3)N4)CC2)cc1 [Example B299, tris(trifluoroacetate)]
II: NS(=O)(=O)c1cc2cc(c1)Nc1nc(ncc1Br)Nc1cccc(c1)CC2 [Example B18, trifluoroacetate]
Query: For the pair I and II , which member has the lower pIC50 number? Pick one; state its label.
Result: II
